- Organism: Mus musculus
- TEST NAME: Biodistribution of [225Ac]-labeled compound in normal mice spleen after 24 hr
- Assay type: ADME, organism-based
- CONDITIONS USED: in vivo
MEASUREMENT LABEL: ID/g (%)

These solved cases illustrate the format of a correct answer.
COMPOUND | OBSERVED MEASUREMENT
O=C(O)CN(CC(=O)O)[C@H](Cc1ccc([N+](=O)[O-])cc1)CN(CC(=O)O)[C@@H]1CCCC[C@H]1N(CC(=O)O)CC(=O)O | 0.63
O=C(O)CN1CCN(CC(=O)O)CCN(CC(=O)O)CCN(CC(=O)O)CCN(CC(=O)O)CCN(CC(=O)O)CC1 | 0.03

1 = O=C(O)CN1CCN(CC(=O)O)CCN(CC(=O)O)CCN(CC(=O)O)CCN(CC(=O)O)CC1
2 = O=C(O)CN1CCN(CC(=O)O)CCN(CC(=O)O)C(Cc2ccc([N+](=O)[O-])cc2)CN(CC(=O)O)CC1 (centres undefined)
I'd appreciate it if you could identify which of 1 and 2 has the greater ID/g. Return value: the label identifying the chosen record.
1

###

- Organism: Mus musculus
- TEST NAME: Biodistribution of [225Ac]-labeled compound in normal mice heart after 120 hr
- Assay type: ADME, organism-based
- CONDITIONS USED: in vivo
MEASUREMENT LABEL: ID/g (%)

P = O=C(O)CN1CCN(CC(=O)O)CCN(CC(=O)O)CCN(CC(=O)O)CCN(CC(=O)O)CCN(CC(=O)O)CC1
Q = O=C(O)CN1CCN(CC(=O)O)CCN(CC(=O)O)C(Cc2ccc([N+](=O)[O-])cc2)CN(CC(=O)O)CC1 (centres undefined)
R = O=C(O)CN1CCN(CC(=O)O)CCN(CC(=O)O)CCN(CC(=O)O)CCN(CC(=O)O)CC1
S = O=C(O)CN(CC(=O)O)[C@H](Cc1ccc([N+](=O)[O-])cc1)CN(CC(=O)O)[C@@H]1CCCC[C@H]1N(CC(=O)O)CC(=O)O
Exam item: list the entries in increasing order of ID/g. # list labels per requested ordering
P, Q, R, S

###

- Species on record: Mus musculus
- TEST NAME: Biodistribution of [225Ac]-labeled compound in normal mice bone after 24 hr
- Format: ADME, organism-based, Bone element
- CONDITIONS USED: in vivo
MEASUREMENT LABEL: ID/g (%)

COMPOUND | MEASUREMENT LABEL | OBSERVED MEASUREMENT
O=C(O)CN(CC(=O)O)[C@H](Cc1ccc([N+](=O)[O-])cc1)CN(CC(=O)O)[C@@H]1CCCC[C@H]1N(CC(=O)O)CC(=O)O | ID/g | 4.65

I = O=C(O)CN1CCN(CC(=O)O)CCN(CC(=O)O)C(Cc2ccc([N+](=O)[O-])cc2)CN(CC(=O)O)CC1 (centres undefined)
II = O=C(O)CN1CCN(CC(=O)O)CCN(CC(=O)O)CCN(CC(=O)O)CCN(CC(=O)O)CC1
Identify the entry with the larger ID/g. Options: I and II Respond with the label that goes with your answer.
II

###

- Species on record: Mus musculus
- TEST NAME: Biodistribution of [225Ac]-labeled compound in normal mice bone after 1 hr
- Type: ADME, organism-based, Bone element
- CONDITIONS USED: in vivo
MEASUREMENT LABEL: ID/g (%)

Past entries and their recorded results:
COMPOUND | ID/g [%]
O=C(O)CN1CCN(CC(=O)O)CCN(CC(=O)O)CCN(CC(=O)O)CCN(CC(=O)O)CCN(CC(=O)O)CC1 | 0.06
O=C(O)CN1CCN(CC(=O)O)CCN(CC(=O)O)CCN(CC(=O)O)CCN(CC(=O)O)CC1 | 1.75

1 = O=C(O)CN(CC(=O)O)[C@H](Cc1ccc([N+](=O)[O-])cc1)CN(CC(=O)O)[C@@H]1CCCC[C@H]1N(CC(=O)O)CC(=O)O
2 = O=C(O)CN1CCN(CC(=O)O)CCN(CC(=O)O)C(Cc2ccc([N+](=O)[O-])cc2)CN(CC(=O)O)CC1 (centres undefined)
Form: Entry with minimum ID/g (choose one): 1 / 2 API: response body contains the label of the selected item.
2

###

- Organism: Mus musculus
- TEST NAME: Biodistribution of [225Ac]-labeled compound in normal mice heart after 24 hr
- Format: ADME, organism-based
- CONDITIONS USED: in vivo
MEASUREMENT LABEL: ID/g (%)

A = O=C(O)CN(CC(=O)O)[C@H](Cc1ccc([N+](=O)[O-])cc1)CN(CC(=O)O)[C@@H]1CCCC[C@H]1N(CC(=O)O)CC(=O)O
B = O=C(O)CN1CCN(CC(=O)O)CCN(CC(=O)O)CCN(CC(=O)O)CCN(CC(=O)O)CC1
C = O=C(O)CN1CCN(CC(=O)O)CCN(CC(=O)O)C(Cc2ccc([N+](=O)[O-])cc2)CN(CC(=O)O)CC1 (centres undefined)
Reorder the list above by recorded ID/g in ascending order. // format: requested-order list of labels
C, A, B

###

- Species on record: Mus musculus
- TEST NAME: Biodistribution of [225Ac]-labeled compound in normal mice spleen after 120 hr
- Type: ADME, organism-based
- CONDITIONS USED: in vivo
MEASUREMENT LABEL: ID/g (%)

MOLECULE | MEASUREMENT UNITS | ID/g
O=C(O)CN1CCN(CC(=O)O)CCN(CC(=O)O)C(Cc2ccc([N+](=O)[O-])cc2)CN(CC(=O)O)CC1 (centres undefined) | % | 0.03

1 = O=C(O)CN(CC(=O)O)[C@H](Cc1ccc([N+](=O)[O-])cc1)CN(CC(=O)O)[C@@H]1CCCC[C@H]1N(CC(=O)O)CC(=O)O
2 = O=C(O)CN1CCN(CC(=O)O)CCN(CC(=O)O)CCN(CC(=O)O)CCN(CC(=O)O)CC1
3 = O=C(O)CN1CCN(CC(=O)O)CCN(CC(=O)O)CCN(CC(=O)O)CCN(CC(=O)O)CCN(CC(=O)O)CC1
Arrange the 3 molecules by rising ID/g, starting with the smallest. Respond with the label ranking, as requested.
3, 2, 1
(3: 0.03%, 2: 1.63%, 1: 5.41%)

###

- Species: Mus musculus
- TEST NAME: Biodistribution of [225Ac]-labeled compound in normal mice liver after 120 hr
- Format: ADME, organism-based
- CONDITIONS USED: in vivo
MEASUREMENT LABEL: ID/g (%)

MOLECULE | ID/g, %
O=C(O)CN(CC(=O)O)[C@H](Cc1ccc([N+](=O)[O-])cc1)CN(CC(=O)O)[C@@H]1CCCC[C@H]1N(CC(=O)O)CC(=O)O | 23.9

a = O=C(O)CN1CCN(CC(=O)O)CCN(CC(=O)O)CCN(CC(=O)O)CCN(CC(=O)O)CCN(CC(=O)O)CC1
b = O=C(O)CN1CCN(CC(=O)O)CCN(CC(=O)O)CCN(CC(=O)O)CCN(CC(=O)O)CC1
c = O=C(O)CN1CCN(CC(=O)O)CCN(CC(=O)O)C(Cc2ccc([N+](=O)[O-])cc2)CN(CC(=O)O)CC1 (centres undefined)
Ordering criterion: ID/g; begin with the maximum. Reply format: the labels, ordered as requested.
b, c, a

###

- Organism: Mus musculus
- TEST NAME: Biodistribution of [225Ac]-labeled compound in normal mice kidney after 1 hr
- Type: ADME, organism-based
- CONDITIONS USED: in vivo
MEASUREMENT LABEL: ID/g (%)

Solved entries (count: 2):
MOLECULE | MEASUREMENT UNITS | OBSERVED MEASUREMENT
O=C(O)CN1CCN(CC(=O)O)CCN(CC(=O)O)C(Cc2ccc([N+](=O)[O-])cc2)CN(CC(=O)O)CC1 (centres undefined) | % | 1.23
O=C(O)CN1CCN(CC(=O)O)CCN(CC(=O)O)CCN(CC(=O)O)CCN(CC(=O)O)CC1 | % | 5.6

1 = O=C(O)CN1CCN(CC(=O)O)CCN(CC(=O)O)CCN(CC(=O)O)CCN(CC(=O)O)CCN(CC(=O)O)CC1
2 = O=C(O)CN(CC(=O)O)[C@H](Cc1ccc([N+](=O)[O-])cc1)CN(CC(=O)O)[C@@H]1CCCC[C@H]1N(CC(=O)O)CC(=O)O
Of 1 and 2 , which carries the smaller reported ID/g figure? Let me know the label of the one you choose.
1
(1: 0.72%, 2: 4.55%)

###

- Organism: Mus musculus
- TEST NAME: Biodistribution of [225Ac]-labeled compound in normal mice blood after 1 hr
- Format: ADME, organism-based
- CONDITIONS USED: in vivo
MEASUREMENT LABEL: ID/g (%)

Recorded ID/g, per entry:
COMPOUND | MEASUREMENT UNITS | OBSERVED MEASUREMENT
O=C(O)CN(CC(=O)O)[C@H](Cc1ccc([N+](=O)[O-])cc1)CN(CC(=O)O)[C@@H]1CCCC[C@H]1N(CC(=O)O)CC(=O)O | % | 0.86
O=C(O)CN1CCN(CC(=O)O)CCN(CC(=O)O)C(Cc2ccc([N+](=O)[O-])cc2)CN(CC(=O)O)CC1 (centres undefined) | % | 0.24

P = O=C(O)CN1CCN(CC(=O)O)CCN(CC(=O)O)CCN(CC(=O)O)CCN(CC(=O)O)CCN(CC(=O)O)CC1
Q = O=C(O)CN1CCN(CC(=O)O)CCN(CC(=O)O)CCN(CC(=O)O)CCN(CC(=O)O)CC1
Choose between P and Q : whose measured ID/g value is numerically larger? Answer by stating the label of the chosen item.
Q
(Q: 1.33%, P: 0.03%)

FYI, the data here is from ChEMBL document CHEMBL1132327.
